experiment: Shaking foam test; type: physicochemical; conditions: 50 ml of a 3% aqueous solution in demineralized water shaken 20 times within 10 seconds; graded weakly foaming, foaming or highly foaming
recorded_endpoint: Foaming behavior

Before answering, review these 4 worked examples.
> print(dat)
                                   compound  recorded.endpoint  observed.measurement
1  CCCCCCCCCCCCCC(=O)N[C@@H](CC(=O)[O-])C(=O)[O-].[Na+].[Na+] [comparative 3, reference compound]   Foaming behavior        highly foaming
2  CCCCCCCC/C=C\CCCCCCCCNC(CCSC)C(=O)O.OCCN(CCO)CCO (racemic)   Foaming behavior        weakly foaming
3  CCCCCCCCCCCC(=O)NCC(=O)[O-].[Na+] [comparative 2, N-lauroylglycine sodium salt, reference compound]   Foaming behavior        highly foaming
4  CCCCCCCCNC(CCSC)C(=O)O.OCCN(CCO)CCO (racemic)   Foaming behavior        weakly foaming

Proceed to the following item.
Consider the compound shown here: CCCCCCCCNC(CCSC)C(=O)O.NCCO (racemic) What is its recorded Foaming behavior?
weakly foaming
